Experimental protocol: qHTS Assay for Lipid Storage Modulators in Drosophila S3 Cells;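 as to cell number change: cells counted by Cell Tracker Red CMTPX staining in the red channel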
Assay setup: BODIPY lipid droplet fluorescence, 18-24 h, cells fed with added oleic acid; measured here: cell count max response
Screen size: about 320,000 compounds; about 2,100 (0.66%) were called active. About 53% were inconclusive and are not listed. Only a selection was taken, and actives are over-represented in it overall.
Known cell number change of a selection of compounds
Kindly provide the numeric value in % only, without the unit symbol.

Some entries whose results are on file:
compound=CC(C)CN(CC(C)C)C(=O)COn1nnc2ccc(S(=O)(=O)N3CCOCC3)cc21 units_text=% experimental_result=3.81
compound="O=S(=O)(NCC(c1ccco1)N1CCN(c2ccccc2)CC1)c1ccc(F)cc1 (stereo not drawn)" units_text=% experimental_result=9.35
compound=NC(=O)c1ccsc1NC(=O)COC(=O)COc1ccccc1F units_text=% experimental_result=-3.04
compound=CC(=O)c1ccc(OCC(=O)OCC(=O)Nc2sccc2C(N)=O)cc1 units_text=% experimental_result=-10.9
compound=Cn1cccc1C(=O)C(=O)Nc1ccccc1 units_text=% experimental_result=-12.6

Reported cell number change ( Cn1c(SCc2ccccn2)nc2c1c(=O)[nH]c(=O)n2C ) = 0.681

Form: compound = COc1ccc(Cc2noc(CN3CCN(Cc4csc(C)n4)CC3)n2)cc1OC ; cell number change = 3.13

What the record says about Cn1cccc2[nH]c(=O)nc1-2 : cell number change is 10.2

Entry under test: O=C(COC(=O)CCOc1ccccc1)NCCC1=CCCCC1 . Its cell number change was 10.9

Form: compound = CCc1ccc(NS(=O)(=O)c2ccc(OC)c3ncccc23)cc1 ; cell number change = 5.2

Form field cell number change, entry Cc1ccc(-c2cc(C(F)F)n3ncc(C(=O)N4CCc5ccccc5C4)c3n2)cc1 : 3.7

The recorded cell number change for Fc1ccc(NC(=S)N2CCc3ccccc32)cc1 is -10.9

The measured cell number change associated with Cn1c(SCc2ccccc2Cl)nc2c1c(=O)[nH]c(=O)n2C reads 3.04

Briefly, cell number change measured for CC(C)CC(=O)Nc1cccc(-c2nc3ncccc3o2)c1 : -6.34

Entry c1ccc(N2CCN(CCc3nnc4n3CCCCC4)CC2)cc1 ; cell number change = 1.29

The recorded cell number change for entry CCOC(=O)C(C)(C)N(Cc1ccccc1C)S(=O)(=O)c1ccc(Cl)c([N+](=O)[O-])c1 equals -1.56

// cell number change lookup, compound = O=C(CSc1ccc(Cl)cc1)Nc1cccc(-c2nc3ncccc3o2)c1 , result: -12.7

The measured cell number change associated with Cc1ccc(S(=O)(=O)Cc2nnnn2-c2ccccc2)cc1 reads -3.66

----------
Experimental protocol: qHTS Assay for Lipid Storage Modulators in Drosophila S3 Cells; also: potency is read from the fitted curve at half-maximal effect
Assay setup: BODIPY lipid droplet fluorescence, 18-24 h, cells fed with added oleic acid; series mostly up to 46.1 µM
Screen size: about 320,000 compounds; about 2,100 (0.66%) were called active. Not shown: some 53% with an inconclusive outcome. The list comes from a sample in which actives are over-represented; it also holds close analogues and randomly drawn compounds.
Quantity measured: Potency

Known results for molecules:
molecule=CC(=O)c1ccc(NC(=O)Cn2cnc(S(=O)(=O)N3CCOCC3)c2)cc1 quantity_measured=Potency experimental_result=inactive
molecule=N#Cc1ccc(OCC(=O)Nc2nc(-c3cccnc3)cs2)cc1 quantity_measured=Potency experimental_result=inactive
molecule=CCCCC(=O)Nc1ccc(C(=O)N2CCN(C)CC2)cc1 quantity_measured=Potency experimental_result=inactive
molecule=CCOc1ccc(Nc2cc3n(c(=O)n2)CCc2cc(OC)c(OC)cc2-3)cc1 quantity_measured=Potency experimental_result=inactive

# molecule Cc1sc2ncnc(N=Nc3c(O)[nH]c4ccccc34)c2c1C ; its Potency = 20.6 µM (active)

Form: molecule = O=C(c1cccc(Cl)c1)N1CCC(N2CCC(C(=O)N3CCOCC3)CC2)CC1 ; Potency = inactive

Potency measured on CCc1cccc(NC(=O)c2ccc3c(=O)n4c(nc3c2)CCCCC4)c1 = inactive

Value of Potency reported for the molecule CCOC(=O)C1CCN(C(=O)c2cccc(N3C(=O)NC4CC3(C)Oc3ccc(C)cc34)c2)CC1 (centres undefined) is inactive

// Potency lookup, molecule = CCCCCCCC(=O)NN1CCOCC1 , result: inactive

So, CCOc1ccc(CCNC(=O)c2sc3nc4n(c(=O)c3c2C)CCC4)cc1 ? Its Potency was inactive

Quick note, Potency for CCOC(=O)C(NC(=O)Nc1ccc(O)cc1)(c1ccccc1)C(F)(F)F (centres undefined) landed at inactive

The measured Potency associated with Cc1ccc(C(=O)C[n+]2cccc(C(N)=O)c2)cc1 reads inactive

Note to self: Potency recorded for COc1ccc(-n2c(SCC(=O)NCC3CCCO3)nc3c([nH]c4ccccc43)c2=O)cc1OC (centres undefined) was inactive

For CCOC(=O)C1CCN(c2nc(-c3ccc(C)cc3)nc3ccccc23)CC1 the molecule record lists Potency as inactive

Entry CCc1ccc(NC(=O)c2sc3nc4n(c(=O)c3c2C)CCC4)cc1 — recorded Potency = 2.31 µM (active)

Form field Potency, entry COc1ccc(N2C(=O)CC(Sc3nc(C)cc(C)n3)C2=O)cc1OC (centres undefined) : inactive

Potency reading for O=C1OCc2cc(-n3cccc3)ccc21 : inactive

Just so you know, measured Potency for C=CCOc1ccc(/C=N/N2C(=O)C(CC(=O)Nc3ccc(F)cc3F)SC2=NC)cc1 (centres undefined) came out at 18.4 µM (active)

Lab book: Potency of COc1ccccc1C(=O)Nc1cccc(N(C)S(C)(=O)=O)c1 noted as inactive

The recorded Potency for entry CN=C1SC(CC(=O)Nc2ccc(F)cc2F)C(=O)N1/N=C/c1ccc(OC(F)F)c(OC)c1 (centres undefined) equals inactive

----------
Listed below: cell number change values for each entry.
Experimental protocol: qHTS Assay for Lipid Storage Modulators in Drosophila S3 Cells;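 as to cell number change: cells counted by Cell Tracker Red CMTPX staining in the red channel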
Assay setup: BODIPY lipid droplet fluorescence, 18-24 h, cells fed with added oleic acid; measured here: cell count max response
About 2,100 (0.66%) of roughly 320,000 compounds were called active. Another 53% or so got no clear call; they are omitted. What follows is part of a selection rich in actives, with near analogues and random picks from the rest.
API: value field is a number in %; no unit string.

Record CCCN1C2CCCC1CC(NC(=S)NCCCOCC)C2 (stereo unspecified) , field cell number change: -29.4

Consider O=[N+]([O-])c1cc(S(=O)(=O)N2CCCCCC2)ccc1F . Its measured cell number change is -27.8

For Cc1cccc(-n2c(=S)[nH]c3nc4c(cc3c2=O)COC(C)(C)C4)c1 the molecule record lists cell number change as 18.9

The value of cell number change measured for the molecule Cc1cc(NS(=O)(=O)c2ccc(NC(=O)CSc3nc4ncccc4[nH]3)cc2)nc(C)n1 turned out to be -9.17

Looking up CN(CC(=O)Nc1cccc(F)c1)C(=O)c1cc(=O)[nH]c2ccccc12 , I found its cell number change recorded as 6.52

cell number change reported for this molecule COc1cc([N+](=O)[O-])ccc1N/C=C/C(=O)c1cccs1 : -11.2

For this molecule ( CNc1cc([N+](=O)[O-])ccc1N/C=C/C(=O)c1cccs1 ), measured cell number change is -14.6

Note to self: cell number change recorded for O=[N+]([O-])c1cc(S(=O)(=O)N2CCCCCC2)ccc1Cl was -8.42

Documented cell number change of Cc1cc(C)nc(/N=C(\N)N2CCCCC2)n1 : -8.98

Record summary for Cc1cccc(C)c1OCC(O)CNC(C)(C)C (stereo unspecified) : reported cell number change = 8.88

So, CC(C)(C)NCC(O)COc1c(F)cc(Br)cc1F (stereo unspecified) ? Its cell number change was -21.9

----------
Experimental protocol: qHTS Assay for Lipid Storage Modulators in Drosophila S3 Cells
Assay setup: BODIPY lipid droplet fluorescence, 18-24 h, cells fed with added oleic acid; series mostly up to 46.1 µM
Out of some 320,000 compounds screened, about 2,100 (0.66%) were called active. Another 53% or so got no clear call; they are omitted. Calls come from the whole dose curve; as a rule, active = well fitted inhibition curve with a large enough effect in the signal ratio, with a control signal flat (not every such curve was filed as active); inconclusive = small, poorly fitted or top-dose-only effect, or effect the other way, or a change in a side signal; inactive = flat fitted curve, though single readings scatter; the % refers to the signal ratio. This excerpt belongs to a sample that is enriched for actives.
Mark one answer only. Choices: TRUE for active, FALSE for inactive

compound=Cc1ccccc1NC(=O)c1onc2c1CCCC2 label=TRUE
compound=COc1ccccc1CNS(=O)(=O)c1c(C)[nH]c(C)c1C(=O)N1CCCCC1 label=TRUE
compound=O=C(Nc1cccc2ccccc12)c1onc2c1CCCC2 label=FALSE
compound=Cc1cccc(N2CCN(c3ccc(N4C(=O)CCCC4=O)cc3[N+](=O)[O-])CC2)c1C label=FALSE
compound=COc1cc(/C=C/c2noc(-c3ccccc3O)n2)ccc1OC(C)=O label=FALSE
compound="COC(=O)C(C)N(C(=O)c1cccc(Cl)c1)c1c(C)cccc1C (centres undefined)" label=FALSE
compound=Cc1ccc(CNC(=O)Cc2nc3nc(C)cc(C)n3n2)cc1 label=FALSE
compound=O=c1c(Cl)c(NCc2ccccc2Cl)cnn1C12CC3CC(CC(C3)C1)C2 label=TRUE

Asked: What outcome does the record of this test show for COc1ccc(C)cc1NC(=O)C1CCCN(S(=O)(=O)c2cccc3nonc23)C1 (centres undefined) ?
Given back: FALSE

These measurements were taken from PubChem BioAssay AID2685.
